Documented Binding Signal (fold over 6E7 parental antibody) across a set of binders
measured-on: T1, human TREM2 (triggering receptor expressed on myeloid cells 2) (human) (UniProt Q9NZC2)
T1 sequence (looked up): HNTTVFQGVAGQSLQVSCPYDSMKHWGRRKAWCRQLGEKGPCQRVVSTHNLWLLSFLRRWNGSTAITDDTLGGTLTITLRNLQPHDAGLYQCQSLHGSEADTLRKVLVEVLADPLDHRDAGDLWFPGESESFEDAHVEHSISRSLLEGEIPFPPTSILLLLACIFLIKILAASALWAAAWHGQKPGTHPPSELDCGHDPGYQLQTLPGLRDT
assay-name: 1st screen, 10 nM Ab
Provide only the numeric value, understood in fold.

binder	readout-value
6E7 antibody affinity modulation variant V53 (antibody, V domains shown) VH: EVQLVQSGAEVKKPGESLKISCKGSGYSFTSYWIAWVRQMPGKGLEWMGIIYPGDSDTRYSPHFQGQVTISADKSISTAYLQWSSLKASDTAMYFCARQRTFYYDSSDYFDYWGQGTLVTVSS VL: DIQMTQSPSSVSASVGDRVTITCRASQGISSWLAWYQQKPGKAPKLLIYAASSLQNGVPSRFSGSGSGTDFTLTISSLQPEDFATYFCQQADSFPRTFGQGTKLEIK	1.25

*Q* Item under review: 6E7 antibody affinity modulation variant V87 (antibody, V domains shown) VH: EVQLVQSGAEVKKPGESLKISCKGSGYSFRSYWIAWVRQMPGKGLEWMGIIYPGDSDVRYSPDFQGQVTISADKSISTAYLQWSSLKASDTAMYFCARSRTFYYDSSDYFDYWGQGTLVTVSS VL: DIQMTQSPSSVSASVGDRVTITCRASQGISSWLAWYQQKPGKAPKLLIYAASSLQWGVPSRFSGSGSGTDFTLTISSLQPEDFATYFCQQADSFPRTFGQGTKLEIK . Reported Binding Signal (fold over 6E7 parental antibody)?
*A* 3.84

These measurements were taken from patent US20250019437A1.
